Test system: Transthyretin (Homo sapiens), P02766 [V50M]
Assay explanation: Inhibition of recombinant Transthyretin V30M mutant (unknown origin) expressed in Escherichia coli expression system assessed as acid mediated fibril formation at 3.6 uM preincubated for 2 hrs followed by addition of acetate buffer solution and measured after 72 hrs by UV-vis spectrophotometry relative to control
Protocol conditions: time 74.0 hrs, values are per cent of control
# note: exactly 4% is not below, so it is FALSE; use TRUE for response, % of control strictly under it

INPUT: Field: below-cutoff. Rule: recorded response, % of control strictly less than 4%. Subject: CCC(C)C(=O)Oc1c(Br)cc(/C=C/c2c(C)n[nH]c2C)cc1Br (configuration not stated)
OUTPUT: TRUE

INPUT: Field: below-cutoff. Rule: recorded response, % of control strictly less than 4%. Subject: Cc1n[nH]c(C)c1/C=C/c1cc(Br)c(OC(=O)c2c(F)cc(F)cc2F)c(Br)c1
OUTPUT: TRUE

INPUT: Field: below-cutoff. Rule: recorded response, % of control strictly less than 4%. Subject: Cc1n[nH]c(C)c1/C=C/c1cc(Br)c(OC(=O)c2c(F)cccc2F)c(Br)c1
OUTPUT: TRUE

INPUT: Field: below-cutoff. Rule: recorded response, % of control strictly less than 4%. Subject: CCCC(=O)Oc1c(Br)cc(/C=C/c2c(C)n[nH]c2C)cc1Br
OUTPUT: FALSE

INPUT: Field: below-cutoff. Rule: recorded response, % of control strictly less than 4%. Subject: Cc1n[nH]c(C)c1/C=C/c1cc(Br)c(O)c(Br)c1
OUTPUT: FALSE

INPUT: Field: below-cutoff. Rule: recorded response, % of control strictly less than 4%. Subject: O=C(O)c1ccc2nc(-c3cc(Cl)cc(Cl)c3)oc2c1
OUTPUT: FALSE
